Overview of reported IC50 chromogenic across a group of binders:
Target: T1, rat PAI-1 (rat, UniProt P20961 24-402)
T1 sequence: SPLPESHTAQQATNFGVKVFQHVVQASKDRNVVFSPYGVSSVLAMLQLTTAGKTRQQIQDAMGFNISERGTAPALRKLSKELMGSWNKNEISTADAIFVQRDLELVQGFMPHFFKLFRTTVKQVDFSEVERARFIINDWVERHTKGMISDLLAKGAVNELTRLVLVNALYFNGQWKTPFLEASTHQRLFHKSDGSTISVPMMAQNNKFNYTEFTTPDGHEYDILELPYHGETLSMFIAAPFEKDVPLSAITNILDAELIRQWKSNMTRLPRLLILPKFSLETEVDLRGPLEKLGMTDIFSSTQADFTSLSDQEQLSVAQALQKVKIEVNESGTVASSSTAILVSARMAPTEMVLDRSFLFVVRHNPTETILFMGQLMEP
Assay: cell-based or functional assay
Response body: numeric value in µM, unit text excluded.

Previously resolved entries follow.
| BINDER | IC50 chromogenic / µM |
| --- | --- |
| Antibody 02, IgG1, not germlined (antibody, V domains shown) VH: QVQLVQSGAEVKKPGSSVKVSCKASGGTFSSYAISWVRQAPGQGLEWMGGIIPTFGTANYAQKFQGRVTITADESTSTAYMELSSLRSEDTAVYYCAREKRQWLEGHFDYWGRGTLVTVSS VL: DIQMTQSPSTLSASVGDRVTITCRASEGIYHSLAWYQQKPGKAPKLLIYKASSLASGVPSRFSGSGSGTEFTLTISSLQPDDFATYYCQQYSDYPLTFGGGTKVEIK | 0.51 |
| Antibody 27, IgG1, not germlined (antibody, V domains shown, whole IgG1; also called Ab 27) VH: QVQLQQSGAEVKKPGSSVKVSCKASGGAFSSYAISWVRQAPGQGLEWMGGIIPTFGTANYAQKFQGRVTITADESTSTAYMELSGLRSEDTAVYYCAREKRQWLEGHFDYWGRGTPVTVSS VL: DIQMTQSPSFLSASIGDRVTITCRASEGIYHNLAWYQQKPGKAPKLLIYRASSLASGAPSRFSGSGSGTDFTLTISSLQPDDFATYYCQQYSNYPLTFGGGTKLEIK | 0.0265 |
| Antibody 10, scFv (scFv, V domains shown) VH: QVQLQQSGAEVKKPGSSVKVSCKASGGTFSSYAISWVRQAPGQGLEWMGGIIPTFGTANYAQKFQGRVTITADESTSTAYMELSSLRSEDTAVYYCAREKRQWLEGHFDYWGRGTPVTVSS VL: DIQMTQSPSFLSASIGDRVAITCRASEGIYHSLAWYQQKPGKAPKLLIYRASSLASGAPSRFSGSGSGTDFTLTISSLQPDDFATYYCQQYSNYPLTFGGGTRLEIK | 0.296 |
| Antibody 20, IgG1, not germlined (antibody, V domains shown, whole IgG1; also called Ab 20) VH: QVQLQQSGAEVKKPGSSVKVSCKASGGTFSSYAISWVRQAPGQGLEWMGGIIPTFGTANYAQKFQGRVTITADESTSTAYMELSSLRSEDTAVYYCAREKRQWLEGHFDYWGRGTLVTVSS VL: DIQMTQSPSTLSASVGDRVTITCRASEGIYHELAWYQQKPGKAPKLLIYRASSLASGVPSRFSGSRSGTEFTLTISSLQPDDFATYYCQQYSDYPLTFGGGTKVEIK | 0.0029 |

Okay, next one:
Query string: // IC50 chromogenic lookup, key: Antibody 11, scFv (scFv, V domains shown) VH: QVQLQQSGAEVKKPGSSVKVSCKASGGTFSSYAISWMRQAPGQGLEWMGGIIPIFGTANYAQKFQGRVTITADESTSTAYMELSGLRSEDTAVYYCAREKRQWLEGHFDYWGRGTPVTVSS VL: DIQMIQSPSFLSASTGDRVTITCQASEGIYHELAWYQQKPGKAPKLLIYRASSLASGAPSRFSGSGSGTDFTLTISSLQPDDFATYYCQQYSNYPLTFGGGTKLEIK
Result string: 0.0595
